MEASUREMENT DESCRIPTION: Permeability of the compound from apical to basolateral side in human Caco-2 cells at 3 uM incubated for 2 hrs by LC-MS/MS analysis
Assay type: ADME, cell-based
RUN CONDITIONS: read-out: permeability
Papp A→B at 2 h, 3 µM values for the compounds below.
Answer format: numeric, nm/s implied, no suffix.

Past entries and their recorded results:
MOLECULE	Papp A→B at 2 h, 3 µM [nm/s]
O=C(Nc1cnccc1-c1ccccc1)c1ccnc(Nc2ccc(Cl)cc2)n1	83
O=C(Nc1cnccc1-c1ccc(F)cc1)c1ccnc(Nc2ccc(Cl)cc2)n1	64
O=C(Nc1cnccc1-c1ccc(F)cc1)c1ccnc(Nc2ccc(OC(F)F)cc2)n1	82
N#Cc1ccc(Nc2nccc(C(=O)Nc3cnccc3-c3ccc(F)cc3)n2)cc1	244

Noted for O=C(Nc1cnccc1-c1ccc(F)cc1)c1ccnc(Nc2ccc(F)cc2)n1 : its Papp A→B at 2 h, 3 µM reads 118
